Each entry below carries its reported Relative rate (nicotinamide = 1.00).
# TEST_TARGET: Pnc1 (Saccharomyces cerevisiae nicotinamidase) (Saccharomyces cerevisiae, UniProt P53184)
# Sequence (P53184 whole entry): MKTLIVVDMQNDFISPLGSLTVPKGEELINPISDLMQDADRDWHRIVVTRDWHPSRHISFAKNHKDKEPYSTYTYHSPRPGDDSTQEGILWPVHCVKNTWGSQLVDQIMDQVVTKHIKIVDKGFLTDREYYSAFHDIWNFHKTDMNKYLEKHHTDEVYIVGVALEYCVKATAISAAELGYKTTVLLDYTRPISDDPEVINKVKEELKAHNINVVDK
# ASSAY_OVERVIEW: Substrate specificity: relative rates for nicotinamide analogues
# Format: biochemical
# MEASUREMENT_CONDITIONS: footnote b: HPLC assay, 500 µM analogue, pH 7.3, 37 °C
MEASURED_PARAMETER: Relative rate (nicotinamide = 1.00)

MOLECULE | TEST_TARGET | MEASURED_PARAMETER | VALUE
NC(=O)c1cccnc1Cl [compound 3, 2-chloronicotinamide] | Pnc1 (Saccharomyces cerevisiae nicotinamidase) (Saccharomyces cerevisiae, UniProt P53184) | Relative rate (nicotinamide = 1.00) | 0
COc1ccncc1C(N)=O [compound 7, 4-Methoxynicotinamide] | Pnc1 (Saccharomyces cerevisiae nicotinamidase) (Saccharomyces cerevisiae, UniProt P53184) | Relative rate (nicotinamide = 1.00) | 0.050
CCOC(=O)c1cccnc1 [compound 12, ethylnicotinate] | Pnc1 (Saccharomyces cerevisiae nicotinamidase) (Saccharomyces cerevisiae, UniProt P53184) | Relative rate (nicotinamide = 1.00) | 0.044
NC(=O)c1ccnc(N)c1 [compound 9, 2-Aminoisonicotinamide] | Pnc1 (Saccharomyces cerevisiae nicotinamidase) (Saccharomyces cerevisiae, UniProt P53184) | Relative rate (nicotinamide = 1.00) | 0
NC(=O)c1ccncc1 [compound 8, isonicotinamide] | Pnc1 (Saccharomyces cerevisiae nicotinamidase) (Saccharomyces cerevisiae, UniProt P53184) | Relative rate (nicotinamide = 1.00) | 0

====

# TEST_TARGET: BbNic (Borrelia burgdorferi nicotinamidase) (Borreliella burgdorferi, UniProt O50718)
# Type: biochemical
# MEASUREMENT_CONDITIONS: footnote b: HPLC assay, 500 µM analogue, pH 7.3, 37 °C

COMPOUND | Relative rate (nicotinamide = 1.00)
NC(=O)c1ccc(Cl)nc1 [compound 4, 6-chloronicotinamide] | 0
NC(=O)c1cccnc1Cl [compound 3, 2-chloronicotinamide] | 0
COc1ccncc1C(N)=O [compound 7, 4-Methoxynicotinamide] | 0.20
COc1cncc(C(N)=O)c1 [compound 2, 5-Methoxynicotinamide] | 2.21

====

Each entry below carries its reported Relative rate (nicotinamide = 1.00).
# TEST_TARGET: Pnc1 (Saccharomyces cerevisiae nicotinamidase) (Saccharomyces cerevisiae, UniProt P53184)
# ASSAY_OVERVIEW: Substrate specificity: relative rates for nicotinamide analogues
# Assay type: biochemical
# MEASUREMENT_CONDITIONS: footnote b: HPLC assay, 500 µM analogue, pH 7.3, 37 °C

COMPOUND | Relative rate (nicotinamide = 1.00)
COc1cncc(C(N)=O)c1 [compound 2, 5-Methoxynicotinamide] | 2.06
COC(=O)c1cccnc1 [compound 11, methylnicotinate] | 0.15
C[n+]1ccc(C(N)=O)cc1 [compound 15, 1-methyl isonicotinamide] | 0
C[n+]1cccc(C(N)=O)c1 [compound 14, 1-Methylnicotinamide] | 0
NC(=O)c1ccc(Cl)nc1 [compound 4, 6-chloronicotinamide] | 0.17
O=C(Oc1ccccc1)c1cccnc1 [compound 13, phenylnicotinate] | 0.031

====

Quick note: these are Ki numbers for system: PfNic (Plasmodium falciparum nicotinamidase) (Plasmodium falciparum)

SMILES_RECORD | UOM | Ki
O=Cc1ccc(F)nc1 | µM | 4.9
Cc1cncc(C=O)c1 | µM | 0.023
O=Cc1cccnc1 | µM | 0.034
CC(=O)c1cccnc1 | µM | 10
N#Cc1cccnc1 | µM | 1000
